- experimental.conditions: 279 patients, tamoxifen 20 mg daily, plasma
outcome.measure: Steady-state plasma concentration, Median (ng/mL)

Sample records with Steady-state plasma concentration, Median:
CCC(=C(c1ccccc1)c1ccc(OCCNC)cc1)c1ccc(O)cc1 [4′-OH-NDM-Tam, 4’-hydroxy-N-desmethyl-tamoxifen]
3.56
CCC(=C(c1ccccc1)c1ccc(OCC[N+](C)(C)C2OC(C(=O)[O-])C(O)C(O)C2O)cc1)c1ccccc1 (mixture of isomers) [(E/Z)-Tam-N-gluc, Tamoxifen-N-β-D-glucuronide]
0.24
CCC(=C(c1ccc(OCCNC)cc1)c1ccc(O[C@@H]2O[C@H](C(=O)O)[C@@H](O)[C@H](O)[C@H]2O)cc1)c1ccccc1 (mixture of isomers) [(E/Z)-4-OH-NDM-Tam-gluc]
0.88

I: CC(O)/C(=C(/c1ccccc1)c1ccc(OCCN(C)C)cc1)c1ccccc1 (stereo not drawn) [(Z)-α-OH-Tam, (Z)-α-hydroxy-tamoxifen]
II: CC(O)/C(=C(\c1ccccc1)c1ccc(OCCN(C)C)cc1)c1ccccc1 (stereo not drawn) [(E)-α-OH-Tam, (E)-α-hydroxy-tamoxifen]
// query Dear colleague, could you let me know whether I or II has the lower recorded Steady-state plasma concentration, Median? Thanks. Please identify the chosen entry by its label.
// result I
(I: 0.04 ng/mL, II: 0.37 ng/mL)

---

- experimental.conditions: Patient ID 169, CYP2D6 functional group EM/EM
outcome.measure: plasma concentration (ng/mL)

CC/C(=C(\c1ccccc1)c1ccc(OCCN(C)C)cc1)c1ccc(O)cc1
2.56

A: CC/C(=C(/c1ccc(OCCNC)cc1)c1ccc(O[C@@H]2O[C@H](C(=O)O)[C@@H](O)[C@H](O)[C@H]2O)cc1)c1ccccc1
B: CCC(=C(c1ccccc1)c1ccc(OCCNC)cc1)c1ccc(O)cc1
C: CC/C(=C(\c1ccc(O)cc1)c1ccc(OCCNC)cc1)c1ccccc1 [(Z)-Endoxifen 3-OH-NDM-Tam]
D: CC/C(=C(\c1ccccc1)c1ccc(OCCN(C)C)cc1)c1ccccc1
// query Task field, ranking: reported plasma concentration, descending order. // respond by listing labels in the order requested
// result D, C, B, A
(D: 177.19 ng/mL, C: 6.84 ng/mL, B: 2.884 ng/mL, A: 1.768 ng/mL)

---

- experimental.conditions: Patient ID 144, CYP2D6 functional group EM/IM
outcome.measure: plasma concentration (ng/mL)

CC/C(=C(\c1ccc(O)cc1)c1ccc(OCCNC)cc1)c1ccccc1 [(Z)-Endoxifen 3-OH-NDM-Tam]
13.84
CC/C(=C(\c1ccccc1)c1ccc(OCCN(C)C)cc1)c1ccccc1 [Tamoxifen]
217.31
CCC(=C(c1ccccc1)c1ccc(OCCNC)cc1)c1ccc(O)cc1 [4'-OH-NDM-Tam]
5.484
CC/C(=C(\c1ccccc1)c1ccc(OCCN(C)C)cc1)c1ccc(O)cc1 [4'-OH-Tam]
4.69

a: CC(O)C(=C(c1ccccc1)c1ccc(OCCN(C)C)cc1)c1ccccc1 (racemic) [(E)-a-OH-Tam]
b: CC(O)C(=C(c1ccccc1)c1ccc(OCCN(C)C)cc1)c1ccccc1 (racemic) [(Z)-a-OH-Tam]
c: CC/C(=C(/c1ccc(OCCNC)cc1)c1ccc(O[C@@H]2O[C@H](C(=O)O)[C@@H](O)[C@H](O)[C@H]2O)cc1)c1ccccc1 [4-OH-NDM-Tam-Gluc]
// query Rank the items in ascending order with respect to plasma concentration. // respond by listing labels in the order requested
// result b, a, c
(b: 0.046 ng/mL, a: 0.581 ng/mL, c: 1.752 ng/mL)

---

- experimental.conditions: Patient ID 164, CYP2D6 functional group EM/EM
outcome.measure: plasma concentration (ng/mL)

Sample records with plasma concentration:
CC/C(=C(/c1ccc(OCCNC)cc1)c1ccc(O[C@@H]2O[C@H](C(=O)O)[C@@H](O)[C@H](O)[C@H]2O)cc1)c1ccccc1
2.087
CC/C(=C(\c1ccc(O)cc1)c1ccc(OCCNC)cc1)c1ccccc1 [(Z)-Endoxifen 3-OH-NDM-Tam]
9.12

1: CC/C(=C(\c1ccccc1)c1ccc(OCCN(C)C)cc1)c1ccc(O)cc1
2: CC/C(=C(\c1ccccc1)c1ccc(OCCN(C)C)cc1)c1ccccc1
// query Dear colleague, could you let me know whether 1 or 2 has the lower recorded plasma concentration? Thanks. Please identify the chosen entry by its label.
// result 1
(1: 3.56 ng/mL, 2: 327.16 ng/mL)

---

- experimental.conditions: Patient ID 145, CYP2D6 functional group EM/EM
outcome.measure: plasma concentration (ng/mL)

Sample records with plasma concentration:
CC/C(=C(\c1ccccc1)c1ccc(OCCN(C)C)cc1)c1ccc(O)cc1
3.93
CCC(=C(c1ccccc1)c1ccc(OCCNC)cc1)c1ccc(O)cc1
4.236
CC/C(=C(/c1ccc(OCCNC)cc1)c1ccc(O[C@@H]2O[C@H](C(=O)O)[C@@H](O)[C@H](O)[C@H]2O)cc1)c1ccccc1
0.939
CC/C(=C(\c1ccccc1)c1ccc(OCCN(C)C)cc1)c1ccccc1
233.24
CC(O)C(=C(c1ccccc1)c1ccc(OCCN(C)C)cc1)c1ccccc1 (racemic) [(Z)-a-OH-Tam]
0

A: CC/C(=C(\c1ccc(O)cc1)c1ccc(OCCNC)cc1)c1ccccc1 [(Z)-Endoxifen 3-OH-NDM-Tam]
B: CC(O)C(=C(c1ccccc1)c1ccc(OCCN(C)C)cc1)c1ccccc1 (racemic) [(E)-a-OH-Tam]
// query Dear colleague, could you let me know whether A or B has the lower recorded plasma concentration? Thanks. Please identify the chosen entry by its label.
// result B
(B: 0.472 ng/mL, A: 10.07 ng/mL)

---

- experimental.conditions: Patient ID 125, CYP2D6 functional group EM/IM
outcome.measure: plasma concentration (ng/mL)

Sample records with plasma concentration:
CC/C(=C(\c1ccc(O)cc1)c1ccc(OCCNC)cc1)c1ccccc1 [(Z)-Endoxifen 3-OH-NDM-Tam]
8.27
CC/C(=C(\c1ccccc1)c1ccc(OCCN(C)C)cc1)c1ccccc1 [Tamoxifen]
194.66
CC(O)C(=C(c1ccccc1)c1ccc(OCCN(C)C)cc1)c1ccccc1 (racemic) [(Z)-a-OH-Tam]
0.118
CC/C(=C(/c1ccc(OCCNC)cc1)c1ccc(O[C@@H]2O[C@H](C(=O)O)[C@@H](O)[C@H](O)[C@H]2O)cc1)c1ccccc1 [4-OH-NDM-Tam-Gluc]
1.856
CCC(=C(c1ccccc1)c1ccc(OCCNC)cc1)c1ccc(O)cc1 [4'-OH-NDM-Tam]
5.701

a: CC/C(=C(\c1ccccc1)c1ccc(OCCN(C)C)cc1)c1ccc(O)cc1 [4'-OH-Tam]
b: CC(O)C(=C(c1ccccc1)c1ccc(OCCN(C)C)cc1)c1ccccc1 (racemic) [(E)-a-OH-Tam]
// query Higher plasma concentration between a and b ? Please identify the chosen entry by its label.
// result a

---

- experimental.conditions: Patient ID 146, CYP2D6 functional group EM/UM
outcome.measure: plasma concentration (ng/mL)

CC/C(=C(\c1ccccc1)c1ccc(OCCN(C)C)cc1)c1ccc(O)cc1
5.17
CC/C(=C(\c1ccc(O)cc1)c1ccc(OCCNC)cc1)c1ccccc1 [(Z)-Endoxifen 3-OH-NDM-Tam]
9.49

I: CC/C(=C(\c1ccccc1)c1ccc(OCCN(C)C)cc1)c1ccccc1
II: CC/C(=C(/c1ccc(OCCNC)cc1)c1ccc(O[C@@H]2O[C@H](C(=O)O)[C@@H](O)[C@H](O)[C@H]2O)cc1)c1ccccc1
III: CC(O)C(=C(c1ccccc1)c1ccc(OCCN(C)C)cc1)c1ccccc1 (racemic) [(Z)-a-OH-Tam]
IV: CCC(=C(c1ccccc1)c1ccc(OCCNC)cc1)c1ccc(O)cc1
V: CC(O)C(=C(c1ccccc1)c1ccc(OCCN(C)C)cc1)c1ccccc1 (racemic) [(E)-a-OH-Tam]
// query Rank the items in ascending order with respect to plasma concentration. // respond by listing labels in the order requested
// result III, V, II, IV, I
(III: 0 ng/mL, V: 0.625 ng/mL, II: 1.492 ng/mL, IV: 7.479 ng/mL, I: 372.14 ng/mL)

---

- experimental.conditions: Patient ID 137, CYP2D6 functional group EM/EM
outcome.measure: plasma concentration (ng/mL)

Sample records with plasma concentration:
CC/C(=C(\c1ccccc1)c1ccc(OCCN(C)C)cc1)c1ccccc1
175.10
CC/C(=C(\c1ccc(O)cc1)c1ccc(OCCNC)cc1)c1ccccc1 [(Z)-Endoxifen 3-OH-NDM-Tam]
7.48
CC/C(=C(/c1ccc(OCCNC)cc1)c1ccc(O[C@@H]2O[C@H](C(=O)O)[C@@H](O)[C@H](O)[C@H]2O)cc1)c1ccccc1
0.871

A: CC(O)C(=C(c1ccccc1)c1ccc(OCCN(C)C)cc1)c1ccccc1 (racemic) [(E)-a-OH-Tam]
B: CCC(=C(c1ccccc1)c1ccc(OCCNC)cc1)c1ccc(O)cc1
// query Higher plasma concentration between A and B ? Please identify the chosen entry by its label.
// result B

1: CC(O)C(=C(c1ccccc1)c1ccc(OCCN(C)C)cc1)c1ccccc1 (racemic) [(Z)-a-OH-Tam]
2: CC/C(=C(\c1ccccc1)c1ccc(OCCN(C)C)cc1)c1ccc(O)cc1
// query Higher plasma concentration between 1 and 2 ? Please identify the chosen entry by its label.
// result 2

Cited source for all entries: paper PMC4522133
